assay_target: COX-2 (Homo sapiens, UniProt P35354)
Construct: purchased Cayman Chemical 701180
Sequence (P35354 18-604): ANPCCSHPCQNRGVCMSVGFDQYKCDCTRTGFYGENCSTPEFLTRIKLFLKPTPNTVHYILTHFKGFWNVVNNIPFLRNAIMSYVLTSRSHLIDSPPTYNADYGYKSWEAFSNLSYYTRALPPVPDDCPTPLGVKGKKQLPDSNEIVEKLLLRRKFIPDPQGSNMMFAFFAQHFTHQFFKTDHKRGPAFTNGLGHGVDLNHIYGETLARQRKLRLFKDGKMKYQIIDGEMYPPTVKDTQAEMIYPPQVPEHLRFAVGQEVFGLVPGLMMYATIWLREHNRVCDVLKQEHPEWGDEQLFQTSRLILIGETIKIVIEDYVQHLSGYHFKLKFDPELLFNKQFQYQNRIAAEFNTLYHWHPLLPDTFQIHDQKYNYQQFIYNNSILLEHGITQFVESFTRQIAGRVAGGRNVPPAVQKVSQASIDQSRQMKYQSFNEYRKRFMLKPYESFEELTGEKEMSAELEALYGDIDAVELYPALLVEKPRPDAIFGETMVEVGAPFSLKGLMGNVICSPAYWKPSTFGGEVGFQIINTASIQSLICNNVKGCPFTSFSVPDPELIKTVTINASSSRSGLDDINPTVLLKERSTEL
protocol_notes: COX-2 inhibition assay (COX-2 ELISA kit)
Format: biochemical
study_conditions: in vitro COX-2 selectivity index
In this section we review reported Selectivity Index (SI) (COX-1 IC50/COX-2 IC50) values for a set of compounds.
Just the number, please, no unit after it.

Some solved cases for reference:
[
  {
    "compound": "NS(=O)(=O)c1ccc(N2N=C(c3ccc(F)cc3)CC2c2ccc3c(c2)OCCO3)cc1 (stereo not shown)",
    "experimental_value": 25.10
  },
  {
    "compound": "Cc1ccc(C2=NN(c3ccc(S(N)(=O)=O)cc3)C(c3ccc4c(c3)OCO4)C2)cc1 (stereo not shown)",
    "experimental_value": 137.3
  },
  {
    "compound": "NS(=O)(=O)c1ccc(N2N=C(c3ccc(I)cc3)CC2c2ccc3c(c2)OCCO3)cc1 (stereo not shown)",
    "experimental_value": 47.33
  },
  {
    "compound": "CCOc1ccc(C2=NN(c3ccc(S(N)(=O)=O)cc3)C(c3ccc4c(c3)OCO4)C2)cc1 (stereo not shown)",
    "experimental_value": 10.45
  },
  {
    "compound": "NS(=O)(=O)c1ccc(N2N=C(c3ccc(Br)cc3)CC2c2ccc3c(c2)OCCO3)cc1 (stereo not shown)",
    "experimental_value": 20.98
  }
]

Challenge: Need Selectivity Index (SI) (COX-1 IC50/COX-2 IC50), item NS(=O)(=O)c1ccc(N2N=C(c3ccc(Cl)cc3)CC2c2ccc3c(c2)OCCO3)cc1 (stereo not shown)
Response given: 26.46

Challenge: Quick one: Cc1ccc(C2=NN(c3ccc(S(N)(=O)=O)cc3)C(c3ccc4c(c3)OCCO4)C2)cc1 (stereo not shown)
Response given: 46.67
